Sourced from patent US10023593B2

The next entries give measured IC50 for cytochrome P450 2D6 (Homo sapiens).

Example compounds with recorded IC50:
{"compound": "Cc1cc(Nc2ncc(Cl)c(Nc3cn(C)nc3S(=O)(=O)C(C)C)n2)c(OC2CC2)cc1C1CC(C)N(C)C(C)C1 (stereo not drawn)", "subjectOfTest": "cytochrome P450 2D6 (Homo sapiens)", "IC50": "> 10 µM"}
{"compound": "Cc1cc(Nc2ncc(Cl)c(Nc3cn(C)nc3S(=O)(=O)C(C)C)n2)c(OC2CC2)cc1C1CCCN(C)C1 (stereo not drawn)", "subjectOfTest": "cytochrome P450 2D6 (Homo sapiens)", "IC50": "> 10 µM"}

Exam item: Report measured IC50; entry is "Cc1cc(Nc2ncc(Cl)c(Nc3cn(C)nc3S(=O)(=O)C(C)C)n2)c(OC2CC2)cc1C1CCN(C2COC2)CC1"
Marked response: > 10 µM

---

subjectOfTest: L1196M mutant ALK kinase (Homo sapiens, UniProt Q9UM73, L1196M)
Sequence (Q9UM73 19-1620 L1196M): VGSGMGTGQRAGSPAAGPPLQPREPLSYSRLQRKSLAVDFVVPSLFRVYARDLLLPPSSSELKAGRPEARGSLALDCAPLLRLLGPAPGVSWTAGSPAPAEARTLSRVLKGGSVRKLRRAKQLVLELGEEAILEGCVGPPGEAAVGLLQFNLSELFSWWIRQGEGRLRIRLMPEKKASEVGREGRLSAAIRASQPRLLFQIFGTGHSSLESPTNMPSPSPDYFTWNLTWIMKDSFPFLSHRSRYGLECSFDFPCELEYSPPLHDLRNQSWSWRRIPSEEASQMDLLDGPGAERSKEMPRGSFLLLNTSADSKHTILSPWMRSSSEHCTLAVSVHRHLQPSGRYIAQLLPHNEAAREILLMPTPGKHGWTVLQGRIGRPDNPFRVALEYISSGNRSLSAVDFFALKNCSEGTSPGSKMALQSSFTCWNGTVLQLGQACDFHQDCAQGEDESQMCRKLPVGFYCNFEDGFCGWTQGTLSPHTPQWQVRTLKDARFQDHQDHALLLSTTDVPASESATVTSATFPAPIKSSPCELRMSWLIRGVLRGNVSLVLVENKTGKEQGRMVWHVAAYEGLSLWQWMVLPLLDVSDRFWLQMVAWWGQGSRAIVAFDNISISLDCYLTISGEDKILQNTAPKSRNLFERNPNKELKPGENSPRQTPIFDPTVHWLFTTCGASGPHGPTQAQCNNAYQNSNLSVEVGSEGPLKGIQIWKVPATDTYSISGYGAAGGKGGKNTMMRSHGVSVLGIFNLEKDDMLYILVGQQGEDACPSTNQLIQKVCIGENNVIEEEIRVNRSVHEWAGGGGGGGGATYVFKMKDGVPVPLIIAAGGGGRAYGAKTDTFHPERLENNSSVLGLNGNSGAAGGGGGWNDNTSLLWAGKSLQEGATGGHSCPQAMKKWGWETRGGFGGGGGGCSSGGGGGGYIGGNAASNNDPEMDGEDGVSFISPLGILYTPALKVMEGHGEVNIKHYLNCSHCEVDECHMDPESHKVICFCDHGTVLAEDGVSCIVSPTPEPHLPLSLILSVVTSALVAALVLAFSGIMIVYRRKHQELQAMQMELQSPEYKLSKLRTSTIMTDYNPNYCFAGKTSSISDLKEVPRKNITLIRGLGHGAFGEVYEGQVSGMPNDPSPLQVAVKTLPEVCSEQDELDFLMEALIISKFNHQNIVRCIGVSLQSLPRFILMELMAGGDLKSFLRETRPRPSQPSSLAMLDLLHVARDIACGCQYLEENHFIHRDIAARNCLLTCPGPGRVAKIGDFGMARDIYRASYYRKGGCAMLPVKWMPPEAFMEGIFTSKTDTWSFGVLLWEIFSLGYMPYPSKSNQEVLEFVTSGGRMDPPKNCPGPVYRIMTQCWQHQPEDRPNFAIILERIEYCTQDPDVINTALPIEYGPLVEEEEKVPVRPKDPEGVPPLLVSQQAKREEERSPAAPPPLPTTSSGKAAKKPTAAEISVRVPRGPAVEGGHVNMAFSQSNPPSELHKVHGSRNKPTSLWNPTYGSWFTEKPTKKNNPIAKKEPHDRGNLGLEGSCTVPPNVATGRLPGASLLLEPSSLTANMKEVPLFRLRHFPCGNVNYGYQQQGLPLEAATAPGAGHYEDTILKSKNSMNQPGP
assayDetails: HTRF KinEASE-TK assay, inhibitory activity on L1196M mutant ALK kinase
runConditions: L1196M mutant ALK 1 ng/μl, substrate 1 μM, ATP 5 μM, 30° C. 35 minutes, read-out: Inhibition on ALK kinases (L1196M mutant), IC50
metricName: log10 of IC50 (log10 of the value in µM)
Transform log10 | Measure IC50 | Unit µM

Worked cases, answers included:
{"compound": "CCN(CC)[C@H]1CC[C@H](c2cc(OC3CC3)c(Nc3ncc(Cl)c(Nc4cn(C)nc4S(=O)(=O)CC(C)C)n3)cc2C)CC1 [Final product 178]", "log10 of IC50": -1.77}
{"compound": "Cc1cc(Nc2nc(Nc3cc(C)c(C4CCN(CCO)CC4)cc3C)ncc2Cl)n[nH]1 [Final product 215, reference compound]", "log10 of IC50": -1.41}
{"compound": "Cc1cc(Nc2ncc(Cl)c(Nc3cn(C)nc3S(=O)(=O)C(C)C)n2)c(OC2CC2)cc1C1CCN(C(=O)CN(C)C)CC1 [Final product 165]", "log10 of IC50": -2.52}
{"compound": "COCC1CC(c2cc(OC3CC3)c(Nc3ncc(Cl)c(Nc4cn(C)nc4S(=O)(=O)CC(C)C)n3)cc2C)CCN1C (stereo not shown) [Final product 79]", "log10 of IC50": -2.10}
{"compound": "Cc1cc(Nc2ncc(Cl)c(Nc3cn(C)nc3S(=O)(=O)C(C)C)n2)c(OCC2CC2)cc1C1CCNCC1 [Final product 12]", "log10 of IC50": -1.77}
{"compound": "CCN1CCC(c2cc(OC(C)C)c(Nc3ncc(Cl)c(Nc4cn(C)nc4S(=O)(=O)C(C)C)n3)cc2C)CC1 [Final product 118]", "log10 of IC50": -2.00}
{"compound": "Cc1cc(Nc2ncc(Cl)c(Nc3cn(C)nc3S(=O)(=O)CC(C)C)n2)c(OC2CC2)cc1C1CCN(CCO)CC1 [Final product 137]", "log10 of IC50": -1.96}
{"compound": "Cc1cc(Nc2ncc(Cl)c(Nc3cn(C)nc3S(=O)(=O)C(C)C)n2)c(OC2CC2)cc1C1=CCN(C)CC1 [Final product 50]", "log10 of IC50": -2.15}
{"compound": "Cc1cc(Nc2ncc(Cl)c(Nc3cn(C)nc3S(=O)(=O)C(C)C)n2)c(OC(CF)CF)cc1C1CCNCC1 [Final product 8]", "log10 of IC50": -2.00}
{"compound": "CC(C)S(=O)(=O)c1nn(C2CC2)cc1Nc1nc(Nc2cc(Cl)c(C3CCNCC3)cc2OC2CC2)ncc1Cl [Final product 23]", "log10 of IC50": -2.10}

Kindly give each listed record's log10 of IC50.
1. Cc1cc(Nc2ncc(Cl)c(Nc3cn(C)nc3S(=O)(=O)C(C)C)n2)c(OC(CF)CF)cc1C1CCN(C)CC1 [Final product 34]
2. Cc1cc(Nc2ncc(Cl)c(Nc3cn(C)nc3S(=O)(=O)C(C)C)n2)c(OC(C)C)cc1C1CCN(C)CC1 [Final product 80]
3. Cc1cc(Nc2nc(Nc3cc(C)c([C@H]4CC[C@H](N5CCN(C)CC5)CC4)cc3F)ncc2Cl)[nH]n1 [Final product 218, reference compound]

Marked response:
1. -1.64
2. -2.10
3. -1.31
